Attribution: ChEMBL document CHEMBL1122515

# experimental details: Michaelis constant (Km), determined by Ficin hydrolysis at pH 6, 25 degrees Centigrade
# Type: ADME
# conditions: buffer
measured attribute: Log 1/Km
Enter a number only.

Worked examples, 4 compounds total:
- smiles data: "CC(C)(C)c1cccc(OC(=O)CNC(=O)c2ccccc2)c1"
  endpoint result: 5.14
- smiles data: "O=C(CNC(=O)c1ccccc1)Oc1cccc(Cl)c1"
  endpoint result: 4.43
- smiles data: "Cc1ccc(OC(=O)CNC(=O)c2ccccc2)cc1"
  endpoint result: 3.82
- smiles data: "O=C(CNC(=O)c1ccccc1)Oc1cccc(C(F)(F)F)c1"
  endpoint result: 4.85

Proceeding to the next compound to report its Log 1/Km.
# input Given `O=C(CNC(=O)c1ccccc1)Oc1ccc([N+](=O)[O-])cc1` , state its recorded Log 1/Km.
# output 4.5

###

Listed compounds paired with reported Log 1/Km
# experimental details: Michaelis constant (Km), determined by Ficin hydrolysis at pH 6, 25 degrees Centigrade
# Type: ADME
# conditions: buffer
Enter a number only.

- smiles data: "O=C(CNC(=O)c1ccccc1)Oc1cccc(Br)c1"
  Log 1/Km: 4.75
- smiles data: "NC(=O)c1cccc(OC(=O)CNC(=O)c2ccccc2)c1"
  Log 1/Km: 3.99
- smiles data: "O=C(CNC(=O)c1ccccc1)Oc1cccc(F)c1"
  Log 1/Km: 3.81

# input Given `CC(=O)Nc1cccc(OC(=O)CNC(=O)c2ccccc2)c1` , state its recorded Log 1/Km.
# output 3.74

# input Given `CC(C)c1ccc(OC(=O)CNC(=O)c2ccccc2)cc1` , state its recorded Log 1/Km.
# output 4.33

# input Given `O=C(CNC(=O)c1ccccc1)Oc1ccc(Cl)cc1` , state its recorded Log 1/Km.
# output 3.91

# input Given `O=C(CNC(=O)c1ccccc1)Oc1ccc(F)cc1` , state its recorded Log 1/Km.
# output 3.53

# input Given `O=C(CNC(=O)c1ccccc1)Oc1cc(Cl)cc(Cl)c1` , state its recorded Log 1/Km.
# output 4.98

# input Given `CC(=O)c1ccc(OC(=O)CNC(=O)c2ccccc2)cc1` , state its recorded Log 1/Km.
# output 4.3

###

# experimental details: Michaelis constant (Km), determined by Ficin hydrolysis at pH 6, 25 degrees Centigrade
# Assay type: ADME
# conditions: buffer
measured attribute: Log 1/Km
Enter a number only.

Worked examples, 6 molecules total:
- smiles data: "O=C(CNC(=O)c1ccccc1)Oc1ccccc1"
  Log 1/Km: 3.9
- smiles data: "COc1ccc(OC(=O)CNC(=O)c2ccccc2)cc1"
  Log 1/Km: 3.82
- smiles data: "Nc1cccc(OC(=O)CNC(=O)c2ccccc2)c1"
  Log 1/Km: 3.72
- smiles data: "O=C(CNC(=O)c1ccccc1)Oc1ccc(Br)cc1"
  Log 1/Km: 4.13
- smiles data: "COc1cccc(OC(=O)CNC(=O)c2ccccc2)c1"
  Log 1/Km: 4.09
- smiles data: "CC(=O)c1cccc(OC(=O)CNC(=O)c2ccccc2)c1"
  Log 1/Km: 4.11

# input Given `O=C(CNC(=O)c1ccccc1)Oc1cc([N+](=O)[O-])cc([N+](=O)[O-])c1` , state its recorded Log 1/Km.
# output 4.69

###

# experimental details: Michaelis constant (Km), determined by Ficin hydrolysis at pH 6, 25 degrees Centigrade
# Assay type: ADME
# conditions: buffer
measured attribute: Log 1/Km
Enter a number only.

Worked examples, 4 molecules total:
- smiles data: "Cc1cccc(OC(=O)CNC(=O)c2ccccc2)c1"
  Log 1/Km: 4.17
- smiles data: "N#Cc1cccc(OC(=O)CNC(=O)c2ccccc2)c1"
  Log 1/Km: 4.15
- smiles data: "O=C(CNC(=O)c1ccccc1)Oc1cccc([N+](=O)[O-])c1"
  Log 1/Km: 4.36
- smiles data: "COc1cc(OC)cc(OC(=O)CNC(=O)c2ccccc2)c1"
  Log 1/Km: 4.52

# input Given `O=C(CNC(=O)c1ccccc1)Oc1cccc(I)c1` , state its recorded Log 1/Km.
# output 4.64

###

# experimental details: Michaelis constant (Km), determined by Ficin hydrolysis at pH 6, 25 degrees Centigrade
# Format: ADME
# conditions: buffer
Listed molecules paired with reported Log 1/Km
Enter a number only.

- smiles data: "NC(=O)c1ccc(OC(=O)CNC(=O)c2ccccc2)cc1"
  measured attribute: "Log 1/Km"
  endpoint result: 4.17
- smiles data: "Cc1cc(C)cc(OC(=O)CNC(=O)c2ccccc2)c1"
  measured attribute: "Log 1/Km"
  endpoint result: 4.54
- smiles data: "N#Cc1ccc(OC(=O)CNC(=O)c2ccccc2)cc1"
  measured attribute: "Log 1/Km"
  endpoint result: 4.27

Proceeding to the next molecule to report its Log 1/Km.
# input Given `CCc1cc(C)cc(OC(=O)CNC(=O)c2ccccc2)c1` , state its recorded Log 1/Km.
# output 4.79
